- experimentalSystem: MEKK2 (Homo sapiens, UniProt Q9Y2U5)
- Construct: purchased Reaction Biology Europe GmbH
- Sequence (Q9Y2U5 whole entry): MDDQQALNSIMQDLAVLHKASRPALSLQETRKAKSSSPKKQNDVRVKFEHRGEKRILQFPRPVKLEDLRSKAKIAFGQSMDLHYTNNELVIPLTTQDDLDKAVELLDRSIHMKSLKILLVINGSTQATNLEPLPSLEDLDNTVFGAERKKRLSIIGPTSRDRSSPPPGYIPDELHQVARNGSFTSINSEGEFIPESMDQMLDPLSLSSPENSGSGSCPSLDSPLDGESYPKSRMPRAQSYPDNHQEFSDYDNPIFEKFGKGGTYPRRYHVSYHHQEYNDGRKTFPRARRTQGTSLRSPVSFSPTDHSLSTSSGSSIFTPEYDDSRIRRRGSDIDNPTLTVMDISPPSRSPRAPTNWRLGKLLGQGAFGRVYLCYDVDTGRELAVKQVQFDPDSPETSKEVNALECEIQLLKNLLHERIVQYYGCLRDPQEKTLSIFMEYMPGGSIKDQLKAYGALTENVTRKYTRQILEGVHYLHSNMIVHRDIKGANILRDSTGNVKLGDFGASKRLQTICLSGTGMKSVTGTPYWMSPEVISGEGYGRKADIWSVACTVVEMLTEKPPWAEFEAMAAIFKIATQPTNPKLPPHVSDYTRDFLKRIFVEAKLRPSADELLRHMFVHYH
- testProtocol: PanQinase kinase panel: MEKK2
- Type: biochemical
- cond: read-out: INHIBITORY EFFECT @ 1 uM: MEKK2
- Experimental: Screening procedures were performed in accordance with the company's on-line protocol [accessed on-line Mar. For each kinase, the median value of the cpm of three wells was defined as “low control” (n=3). This value reflects unspecific binding of radioactivity to the plate in the absence of a protein kinase but in the presence of the substrate. […]
Would you mind telling me the reported inhibition at 1 µM of each entry?

Returns the measured inhibition at 1 µM for the input molecule. Input: C=CC(=O)N1CCC([C@@H]2CCNc3c(C(N)=O)c(-c4ccc(Oc5ccccc5)cc4)nn32)CC1
< 50%

Returns the measured inhibition at 1 µM for the input molecule. Input: O=C(c1ccc(Oc2ccccc2)cc1Cl)c1c[nH]c2ncnc(N[C@@H]3CC[C@@H](CO)OC3)c12
70 to 89%

Returns the measured inhibition at 1 µM for the input molecule. Input: Cc1cccnc1[C@H]1CCC[C@@H](c2ncccc2C)N1CCN1CCN(C(=O)c2ccc(-c3cc4c(-c5cccc(NC(=O)c6ccccc6)c5C)ncnc4[nH]3)cc2)CC1
< 50%

Returns the measured inhibition at 1 µM for the input molecule. Input: COc1ccc(F)cc1C(=O)NCc1ccc(-c2nn([C@@H](C)C(F)(F)F)c(N)c2C(N)=O)cc1
< 50%

* * *

- experimentalSystem: PAK2 (Homo sapiens)
- Construct: purchased Reaction Biology Europe GmbH
- Sequence (Q13177 whole entry): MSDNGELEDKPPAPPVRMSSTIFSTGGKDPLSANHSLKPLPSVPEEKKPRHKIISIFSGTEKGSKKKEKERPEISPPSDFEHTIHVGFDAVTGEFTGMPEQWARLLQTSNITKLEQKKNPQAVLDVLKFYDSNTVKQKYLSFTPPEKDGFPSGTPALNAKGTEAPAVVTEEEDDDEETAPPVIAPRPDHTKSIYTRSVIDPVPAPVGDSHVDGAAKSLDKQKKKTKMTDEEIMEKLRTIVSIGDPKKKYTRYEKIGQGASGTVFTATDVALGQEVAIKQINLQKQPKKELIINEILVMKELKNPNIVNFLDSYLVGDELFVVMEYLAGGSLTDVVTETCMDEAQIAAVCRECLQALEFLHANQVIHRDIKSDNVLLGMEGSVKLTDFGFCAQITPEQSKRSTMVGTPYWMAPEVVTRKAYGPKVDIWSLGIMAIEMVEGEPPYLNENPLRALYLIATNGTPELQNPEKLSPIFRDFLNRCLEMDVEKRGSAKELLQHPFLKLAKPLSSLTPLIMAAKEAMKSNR
- testProtocol: PanQinase kinase panel: PAK2
- Type: biochemical
- cond: read-out: INHIBITORY EFFECT @ 1 uM: PAK2
Would you mind telling me the reported inhibition at 1 µM of each entry?

Returns the measured inhibition at 1 µM for the input molecule. Input: C=CC(=O)N1CCC([C@@H]2CCNc3c(C(N)=O)c(-c4ccc(Oc5ccccc5)cc4)nn32)CC1
< 50%

Returns the measured inhibition at 1 µM for the input molecule. Input: COc1ccc(F)cc1C(=O)NCc1ccc(-c2nn([C@@H](C)C(F)(F)F)c(N)c2C(N)=O)cc1
< 50%

Returns the measured inhibition at 1 µM for the input molecule. Input: Cc1cccnc1[C@H]1CCC[C@@H](c2ncccc2C)N1CCN1CCN(C(=O)c2ccc(-c3cc4c(-c5cccc(NC(=O)c6ccccc6)c5C)ncnc4[nH]3)cc2)CC1
< 50%

Returns the measured inhibition at 1 µM for the input molecule. Input: O=C(c1ccc(Oc2ccccc2)cc1Cl)c1c[nH]c2ncnc(N[C@@H]3CC[C@@H](CO)OC3)c12
70 to 89%

* * *

- Tested on: Ramos cell line
- testProtocol: Ramos cell line viability assay (CellTiter-Glo, 72 hr)
- Assay type: cell-based
- cond: Homo sapiens, class, read-out: Ramos viability IC50
- Method: Inhibition of non-Hodgkin lymphoma B-cell proliferation by compounds of the present invention was evaluated in a Ramos cell line. Ramos is a B lymphocyte cell line that was derived from a patient with Burkitt's Lymphoma. Cell viability was analyzed with the CellTiter-Glo® Luminescent Cell Viability Assay Kit (G7572, Promega), according to the manufacturer's instruction. […] Luminescence was detected on a PerkinElmer EnVision Multimode Plate Reader as relative luminescence units (RLU).
pIC50: −log10 of the molar value.
Would you mind telling me the reported pIC50 of each entry?

Returns the measured pIC50 for the input compound. Input: Cc1cccnc1[C@H]1CCC[C@@H](c2ncccc2C)N1CCCCNC(=O)[C@@H]1CC[C@@H](Nc2ncnc3[nH]cc(C(=O)c4ccc(Oc5ccccc5)cc4Cl)c23)CO1
5.82 to 6.00

Returns the measured pIC50 for the input compound. Input: Cc1cccnc1[C@H]1CCC[C@@H](c2ncccc2C)N1CCCCNC(=O)OC[C@@H]1CC[C@@H](Nc2ncnc3[nH]cc(C(=O)c4ccc(Oc5ccccc5)cc4Cl)c23)CO1
5.82 to 6.00

Returns the measured pIC50 for the input compound. Input: Cc1cccnc1[C@H]1CCC[C@@H](c2ncccc2C)N1CCNC1CN(C(=O)c2ccc(-c3cc4c(-c5cccc(NC(=O)c6ccc(C(C)(C)C)cc6)c5C)ncnc4[nH]3)cc2)C1
≤ 5.40

Returns the measured pIC50 for the input compound. Input: C=CC(=O)N1CCC([C@@H]2CCNc3c(C(N)=O)c(-c4ccc(Oc5ccccc5)cc4)nn32)CC1
≤ 5.40

Returns the measured pIC50 for the input compound. Input: Cc1cc(-c2ccnc(Nc3cnn(CCCN4[C@@H](c5ncccc5C)CCC[C@H]4c4ncccc4C)c3)n2)ccc1CNC(=O)N1CC(OC(C)C)C1
5.40 to 5.70
